Tested on: Escherichia coli TOP10;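 further: peptides expressed intracellularly from a pBAD plasmid library in pooled LB shake-flask culture, induced with 0.3% L-arabinose, DNA abundance read by NGS, three biological replicates, DESeq2 with apeglm shrinkage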
ASSAY EXPLANATION: shrunken log2 fold change of peptide-encoding DNA abundance (4.5 h post-induction vs induction); higher = less antimicrobial activity (less host growth inhibition)
MEASUREMENT CONTEXT: time post-induction: 4.5 h; library: site-saturation at positions 5, 18, 19, 20
shrunken log2 fold change below 0.01 gives Not met; shrunken log2 fold change at or above it gives Met.

Reference set, count: 5
{"SEQUENCE RECORD": "RRIRQRPPRLPRPRPRPQSQPRP", "ASSAY TARGET": "Escherichia coli TOP10", "ASSIGNED LABEL": "Not met"}
{"SEQUENCE RECORD": "RRIRLRPPRLPRPRPRPERVPRP", "ASSAY TARGET": "Escherichia coli TOP10", "ASSIGNED LABEL": "Met"}
{"SEQUENCE RECORD": "RRIRYRPPRLPRPRPRPPDWPRP", "ASSAY TARGET": "Escherichia coli TOP10", "ASSIGNED LABEL": "Met"}
{"SEQUENCE RECORD": "RRIRWRPPRLPRPRPRPAMTPRP", "ASSAY TARGET": "Escherichia coli TOP10", "ASSIGNED LABEL": "Met"}
{"SEQUENCE RECORD": "RRIRQRPPRLPRPRPRPFVHPRP", "ASSAY TARGET": "Escherichia coli TOP10", "ASSIGNED LABEL": "Not met"}

Task item: Does `RRIRMRPPRLPRPRPRPKRAPRP` have a reported shrunken log2 fold change of at least 0.01?
Reply: Met

Task item: Does `RRIRCRPPRLPRPRPRPVSSPRP` have a reported shrunken log2 fold change of at least 0.01?
Reply: Not met

Task item: Does `RRIRARPPRLPRPRPRPYHQPRP` have a reported shrunken log2 fold change of at least 0.01?
Reply: Not met

Task item: Does `RRIRTRPPRLPRPRPRPVEDPRP` have a reported shrunken log2 fold change of at least 0.01?
Reply: Met

Task item: Does `RRIRWRPPRLPRPRPRPTTAPRP` have a reported shrunken log2 fold change of at least 0.01?
Reply: Met

Task item: Does `RRIRNRPPRLPRPRPRPLVYPRP` have a reported shrunken log2 fold change of at least 0.01?
Reply: Not met

Task item: Does `RRIRGRPPRLPRPRPRPGTLPRP` have a reported shrunken log2 fold change of at least 0.01?
Reply: Met

Task item: Does `RRIRERPPRLPRPRPRPTLWPRP` have a reported shrunken log2 fold change of at least 0.01?
Reply: Met

Task item: Does `RRIRSRPPRLPRPRPRPNPTPRP` have a reported shrunken log2 fold change of at least 0.01?
Reply: Met

Task item: Does `RRIRLRPPRLPRPRPRPEAKPRP` have a reported shrunken log2 fold change of at least 0.01?
Reply: Met

Task item: Does `RRIRGRPPRLPRPRPRPMHWPRP` have a reported shrunken log2 fold change of at least 0.01?
Reply: Met

Task item: Does `RRIRRRPPRLPRPRPRPQPLPRP` have a reported shrunken log2 fold change of at least 0.01?
Reply: Met

Task item: Does `RRIRDRPPRLPRPRPRPMHMPRP` have a reported shrunken log2 fold change of at least 0.01?
Reply: Not met

Task item: Does `RRIRDRPPRLPRPRPRPKPPPRP` have a reported shrunken log2 fold change of at least 0.01?
Reply: Met

Task item: Does `RRIRWRPPRLPRPRPRPSWGPRP` have a reported shrunken log2 fold change of at least 0.01?
Reply: Met

Task item: Does `RRIRVRPPRLPRPRPRPMLRPRP` have a reported shrunken log2 fold change of at least 0.01?
Reply: Not met

Task item: Does `RRIRYRPPRLPRPRPRPHWLPRP` have a reported shrunken log2 fold change of at least 0.01?
Reply: Not met

Task item: Does `RRIRERPPRLPRPRPRPMWFPRP` have a reported shrunken log2 fold change of at least 0.01?
Reply: Not met

Task item: Does `RRIRCRPPRLPRPRPRPHSSPRP` have a reported shrunken log2 fold change of at least 0.01?
Reply: Not met
